test system: A549; test: Antiproliferative activity against human A549 cells; type: functional, cell-based
MEASURED PROPERTY: pIC50
Would you please state pIC50, meaning minus log10 of the concentration in mol/L, as a bare number?

Query block: Output measured pIC50 for this item: CCOP(=O)(OCC)C(Nc1ccc(Cl)cc1[N+](=O)[O-])c1c[nH]c2ccccc12 (stereo unspecified)
Result block: 4.94
